src = paper PMC6277434

- target-system: HMGCR (TM1-8)-GFP (Cricetulus griseus, UniProt P00347)
- Sequence (P00347 1-346): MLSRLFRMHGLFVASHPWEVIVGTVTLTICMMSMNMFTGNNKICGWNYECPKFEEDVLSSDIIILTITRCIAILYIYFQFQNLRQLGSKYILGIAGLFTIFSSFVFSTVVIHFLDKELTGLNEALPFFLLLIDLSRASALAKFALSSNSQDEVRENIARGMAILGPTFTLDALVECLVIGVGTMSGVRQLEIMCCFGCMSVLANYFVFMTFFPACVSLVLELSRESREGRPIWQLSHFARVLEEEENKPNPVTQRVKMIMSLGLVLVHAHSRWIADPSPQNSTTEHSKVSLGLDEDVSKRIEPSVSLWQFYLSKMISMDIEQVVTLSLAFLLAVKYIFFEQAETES
- assay-summary: HMGCR (TM1-8)-GFP fluorescent assay (high-content imaging) in CHG cells
- condition-info: read-out: Mean (HMGCR (TM1-8)-GFP signal relative to 0 μM = 100)
The following compounds are shown together with reported remaining activity at 1.25 µM values.
# unit: % | format: bare number

# example entries with known answers
{"columns": ["compound", "unit-abbreviation", "remaining activity at 1.25 µM"],
 "data": [
  ["CCC(O)CCC[C@@H](C)C1CCC2C3C(CC[C@@]21C)[C@@]1(C)CC[C@H](O)C(C)(C)C1=C[C@@H]3O (stereo partly shown)", "%", 43.1],
  ["C[C@H](CCCC(C)(C)O)C1CCC2C3C(CC[C@@]21C)[C@@]1(C)CC[C@H](O)C(C)(C)C1=C[C@@H]3O (stereo partly shown)", "%", 38.6],
  ["CCC(O)(CC)CC[C@@H](C)C1CCC2C3C(CC[C@@]21C)[C@@]1(C)CC[C@H](O)C(C)(C)C1=C[C@@H]3O (stereo partly shown)", "%", 53.1],
  ["C=CCC(O)CCCCC[C@@H](C)C1CCC2C3C(CC[C@@]21C)[C@@]1(C)CC[C@H](O)C(C)(C)C1=C[C@@H]3O (stereo partly shown)", "%", 50.3],
  ["CC(O)CCCC[C@@H](C)C1CCC2C3C(CC[C@@]21C)[C@@]1(C)CC[C@H](O)C(C)(C)C1=C[C@@H]3O (stereo partly shown)", "%", 51.8]
]}

Ask: Find the recorded remaining activity at 1.25 µM belonging to C=CCC(O)CCC[C@@H](C)C1CCC2C3C(CC[C@@]21C)[C@@]1(C)CC[C@H](O)C(C)(C)C1=C[C@@H]3O (stereo partly shown) and report it.
Reply: 37.1

---

- target-system: HMGCR (TM1-8)-GFP (Cricetulus griseus, UniProt P00347)
- assay-summary: HMGCR (TM1-8)-GFP fluorescent assay (high-content imaging) in CHG cells
- condition-info: read-out: Mean (HMGCR (TM1-8)-GFP signal relative to 0 μM = 100)
Catalogue of remaining activity at 10 µM readings, one per entry.
Provide only the numeric value, understood in %.

{"columns": ["compound", "target-system", "unit-abbreviation", "remaining activity at 10 µM"],
 "data": [
  ["CCC(O)CCCC[C@@H](C)C1CCC2C3C(CC[C@@]21C)[C@@]1(C)CC[C@H](O)C(C)(C)C1=C[C@@H]3O (stereo partly shown)", "HMGCR (TM1-8)-GFP (Cricetulus griseus, UniProt P00347)", "%", 18.6]
]}

Ask: Checklist item: remaining activity at 10 µM tested on HMGCR (TM1-8)-GFP (Cricetulus griseus, UniProt P00347), entry CC(O)CCCCC[C@@H](C)C1CCC2C3C(CC[C@@]21C)[C@@]1(C)CC[C@H](O)C(C)(C)C1=C[C@@H]3O (stereo partly shown) , value?
Reply: 21.8

Ask: Next compound: COC(=O)CCC[C@@H](C)C1CCC2C3C(CC[C@@]21C)[C@@]1(C)CC[C@H](O)C(C)(C)C1=C[C@@H]3O (stereo partly shown)
Reply: 40.9

---

- target-system: HMGCR (TM1-8)-GFP (Cricetulus griseus, UniProt P00347)
- assay-summary: HMGCR (TM1-8)-GFP fluorescent assay (high-content imaging) in CHG cells
- condition-info: 16 h, read-out: HMGCR (TM1-8)-GFP fluorescent intensity, mean
Below, each of the molecules is paired with its reported remaining activity at 0.1 µM value.
Report the figure in % without appending any unit label.

{"columns": ["molecule", "remaining activity at 0.1 µM [%]"],
 "data": [
  ["CC(C)CCC[C@@H](C)[C@H]1CCC2C3C(CC[C@@]21C)[C@@]1(C)CC[C@H](O)C(C)(C)C1=C[C@H]3O (stereo partly drawn)", 108],
  ["CC(C)CCC[C@@H](C)[C@H]1CC[C@H]2[C@@H]3[C@@H](O)C=C4C(C)(C)[C@@H](O)CC[C@]4(C)[C@H]3CC[C@]12C [Compound 35, 4,4-Dimethyl 7β-hydroxyl cholesterol]", 87.1],
  ["CC(C)CCC[C@@H](C)[C@H]1CC[C@H]2[C@@H]3CC=C4C[C@@H](O)CC[C@]4(C)[C@H]3CC[C@]12C", 95.9],
  ["CC(C)CCC[C@@H](C)[C@H]1CCC2C3C(=NO)C=C4C(C)(C)[C@@H](O)CC[C@]4(C)C3CC[C@@]21C (stereo partly drawn)", 103],
  ["CCC1(CCOC)C2=CCC3C(CCC4(C)C(C(C)CCCC(C)C)CCC34)C2(C)CCC1O (stereo not drawn)", 90.8]
]}

Pending molecule:
Ask: Requested read-out: remaining activity at 0.1 µM. Entry: CC(C)CCC[C@@H](C)[C@H]1CCC2C3C(CC[C@@]21C)[C@@]1(C)CC[C@H](O)C(C)(C)C1=C[C@H]3N=[N+]=[N-] (stereo partly drawn)
Reply: 99.5
